System: 284 cell lines
Experiment notes: cells
Conditions used: Hs766T, read-out: Cell Count IC50, Hs 766T; Pancreas
Observation type: IC50

Exam item: # input compound: `CNc1cc(C)nc(Nc2ccc(OC)c(OCCCN3CCCC3)c2)n1` ; wanted: its IC50
Marked response: > 10 µM

----------
Tested on: 284 cell lines
Experiment notes: cells
Conditions used: Homo sapiens, SAOS-2, read-out: Cell Count IC50, SaOS2; Bone; Osteosarcoma
Observation type: IC50

Exam item: # input molecule: `CNc1cc(C)nc(Nc2ccc(OC)c(OCCCN3CCCC3)c2)n1` ; wanted: its IC50
Marked response: 100 to 1000 nM

----------
Tested on: Human CD34+ progenitor cells
Experiment notes: Human CD34+ progenitors assay for fetal hemoglobin induction, % HbF+ cells by FACS (healthy donors)
Assay type: cell-based
Conditions used: evaluated in the context of cell viability
Observation type: Observed Induction of % HbF + Human Erythroid Progenitors

Nc1ccccc1NC(=O)c1ccc(CNC(=O)OCc2cccnc2)cc1 :: Yes
Clc1ccc2c(c1)CCc1cccnc1C2=C1CCNCC1 :: No
O=C(CCCCCCC(=O)Nc1ccccc1)NO :: No
Nc1ccccc1NC(=O)c1cnccn1 :: Yes
Nc1cccc2c1C(=O)N(C1CCC(=O)NC1=O)C2=O (centres unmarked) [Pomalidomide, pomalidomide] :: Yes
CN(C)C(=N)N=C(N)N :: Yes

For the next question, use this compound.
Exam item: # input compound: NC(=O)NO [Hydroxyurea, hydroxyurea, reference compound] ; wanted: its Observed Induction of % HbF + Human Erythroid Progenitors
Marked response: Yes

----------
System: 284 cell lines
Experiment notes: cells
Conditions used: read-out: Cell Count IC50, NAMALWA; Hematopoietic; Lymphoma
Description: A screen of 284 cell lines to assess the antiproliferative effect of EHMT2 inhibition was conducted by treating cell lines in 384-well format with a half-log step dilutions of Compound 205 over 10 concentrations with a maximum concentration of 0.1% v/v DMSO. Cells were plated on Day 0 and treated with compound on Day 1. […] Automated fluorescence microscopy was carried out using a Molecular Devices ImageXpress Micro XL high-content imager, and images were collected with a 4× objective. […]
pIC50: −log10 of the molar value.
Observation type: pIC50

Exam item: What pIC50 appears in the records for this molecule with 284 cell lines? `CNc1cc(C)nc(Nc2ccc(OC)c(OCCCN3CCCC3)c2)n1`
Marked response: 5.00 to 6.00

----------
Tested on: 284 cell lines
Experiment notes: cells
Conditions used: Homo sapiens, MG-63, read-out: Cell Count IC50, MG-63; Bone; Osteosarcoma
pIC50: −log10 of the molar value.
Observation type: pIC50

Exam item: What pIC50 appears in the records for this molecule with 284 cell lines? CNc1cc(C)nc(Nc2ccc(OC)c(OCCCN3CCCC3)c2)n1 [Compound 205]
Marked response: 5.00 to 6.00

----------
Tested on: 284 cell lines
Experiment notes: cells
Conditions used: Homo sapiens, KU812, read-out: Cell Count IC50, KU812; Hematopoietic; Leukemia
Observation type: IC50

Exam item: # input compound: CNc1cc(C)nc(Nc2ccc(OC)c(OCCCN3CCCC3)c2)n1 [Compound 205] ; wanted: its IC50
Marked response: > 10 µM

----------
Test system: 284 cell lines
Experiment notes: cells
Conditions used: Homo sapiens, CHL-1, read-out: Cell Count IC50, CHL-1; Skin; Melanoma
pIC50: −log10 of the molar value.
Observation type: pIC50

Exam item: # input molecule: `CNc1cc(C)nc(Nc2ccc(OC)c(OCCCN3CCCC3)c2)n1` ; wanted: its pIC50
Marked response: < 5.00

----------
Tested on: 284 cell lines
Experiment notes: cells
Conditions used: Homo sapiens, CAKI-1, read-out: Cell Count IC50, Caki-1; Kidney
Observation type: IC50

Exam item: # input molecule: `CNc1cc(C)nc(Nc2ccc(OC)c(OCCCN3CCCC3)c2)n1` ; wanted: its IC50
Marked response: 1 to 10 µM

----------
Tested on: 284 cell lines
Experiment notes: cells
Conditions used: read-out: Cell Count IC50, IM-9; Hematopoietic; Myeloma
Observation type: IC50

Exam item: # input compound: CNc1cc(C)nc(Nc2ccc(OC)c(OCCCN3CCCC3)c2)n1 [Compound 205] ; wanted: its IC50
Marked response: > 10 µM

----------
Test system: 284 cell lines
Experiment notes: cells
Conditions used: Homo sapiens, DMS-114, read-out: Cell Count IC50, DMS114; Lung; SCLC
Observation type: IC50

Exam item: # input molecule: `CNc1cc(C)nc(Nc2ccc(OC)c(OCCCN3CCCC3)c2)n1` ; wanted: its IC50
Marked response: 1 to 10 µM

----------
Test system: 284 cell lines
Experiment notes: cells
Conditions used: Homo sapiens, ChaGo-K-1, read-out: Cell Count IC50, ChaGoK1; Lung; NSCLC
pIC50: −log10 of the molar value.
Observation type: pIC50

Exam item: # input compound: `CNc1cc(C)nc(Nc2ccc(OC)c(OCCCN3CCCC3)c2)n1` ; wanted: its pIC50
Marked response: < 5.00

----------
Tested on: 284 cell lines
Experiment notes: cells
Conditions used: Homo sapiens, BXPC-3, read-out: Cell Count IC50, BxPC-3; Pancreas
pIC50: −log10 of the molar value.
Observation type: pIC50

Exam item: # input compound: CNc1cc(C)nc(Nc2ccc(OC)c(OCCCN3CCCC3)c2)n1 [Compound 205] ; wanted: its pIC50
Marked response: 5.00 to 6.00

----------
System: 284 cell lines
Experiment notes: cells
Conditions used: Homo sapiens, A-375, read-out: Cell Count IC50, A375; Skin; Melanoma
Observation type: IC50

Exam item: # input compound: `CNc1cc(C)nc(Nc2ccc(OC)c(OCCCN3CCCC3)c2)n1` ; wanted: its IC50
Marked response: 1 to 10 µM

----------
Tested on: 284 cell lines
Experiment notes: cells
Conditions used: Homo sapiens, SK-LMS-1, read-out: Cell Count IC50, SK-LMS-1; Soft & Connective Tissue; Sarcoma
Description: A screen of 284 cell lines to assess the antiproliferative effect of EHMT2 inhibition was conducted by treating cell lines in 384-well format with a half-log step dilutions of Compound 205 over 10 concentrations with a maximum concentration of 0.1% v/v DMSO. Cells were plated on Day 0 and treated with compound on Day 1. […] Automated fluorescence microscopy was carried out using a Molecular Devices ImageXpress Micro XL high-content imager, and images were collected with a 4× objective. […]
Observation type: IC50

Exam item: # input compound: `CNc1cc(C)nc(Nc2ccc(OC)c(OCCCN3CCCC3)c2)n1` ; wanted: its IC50
Marked response: > 10 µM

----------
System: 284 cell lines
Experiment notes: cells
Conditions used: Homo sapiens, 786-0, read-out: Cell Count IC50, 786-O; Kidney
pIC50: −log10 of the molar value.
Observation type: pIC50

Exam item: What pIC50 appears in the records for this compound with 284 cell lines? `CNc1cc(C)nc(Nc2ccc(OC)c(OCCCN3CCCC3)c2)n1`
Marked response: < 5.00

----------
Test system: 284 cell lines
Experiment notes: cells
Conditions used: read-out: Cell Count IC50, Hs 852.T; Skin; Melanoma
Observation type: IC50

Exam item: What IC50 appears in the records for this compound with 284 cell lines? `CNc1cc(C)nc(Nc2ccc(OC)c(OCCCN3CCCC3)c2)n1`
Marked response: > 10 µM

----------
Test system: 284 cell lines
Experiment notes: cells
Conditions used: Homo sapiens, BeWo, read-out: Cell Count IC50, BeWo; Placenta
Observation type: IC50

Exam item: # input molecule: `CNc1cc(C)nc(Nc2ccc(OC)c(OCCCN3CCCC3)c2)n1` ; wanted: its IC50
Marked response: > 10 µM

----------
Test system: 284 cell lines
Experiment notes: cells
Conditions used: Homo sapiens, A704, read-out: Cell Count IC50, A-704; Kidney
pIC50: −log10 of the molar value.
Observation type: pIC50

Exam item: # input compound: `CNc1cc(C)nc(Nc2ccc(OC)c(OCCCN3CCCC3)c2)n1` ; wanted: its pIC50
Marked response: 5.00 to 6.00

----------
System: 284 cell lines
Experiment notes: cells
Conditions used: Homo sapiens, A253, read-out: Cell Count IC50, A-253; Head and Neck
Observation type: IC50

Exam item: # input compound: `CNc1cc(C)nc(Nc2ccc(OC)c(OCCCN3CCCC3)c2)n1` ; wanted: its IC50
Marked response: > 10 µM

----------
Test system: 284 cell lines
Experiment notes: cells
Conditions used: read-out: Cell Count IC50, TUR; Hematopoietic; Lymphoma
Observation type: IC50

Exam item: # input compound: CNc1cc(C)nc(Nc2ccc(OC)c(OCCCN3CCCC3)c2)n1 [Compound 205] ; wanted: its IC50
Marked response: 1 to 10 µM

----------
System: 284 cell lines
Experiment notes: cells
Conditions used: Hs 445, read-out: Cell Count IC50, Hs 445; Hematopoietic; Lymphoma
pIC50: −log10 of the molar value.
Observation type: pIC50

Exam item: # input compound: CNc1cc(C)nc(Nc2ccc(OC)c(OCCCN3CCCC3)c2)n1 [Compound 205] ; wanted: its pIC50
Marked response: 5.00 to 6.00
